# Test system: RSV Long strain
# test: Viral cytopathic effect (CPE) assay, anti-RSV activity
# Format: cell-based, Respiratory Syncytial Virus
# condition_set: human respiratory syncytial virus, 144 h, RSV Long strain (ATCC); cell viability after 6 days, Cell Counting kit-8
# Protocol: Viral cytopathic effect (CPE) assay: To measure anti-RSV activity of compounds, 96-well plates are seeded with 6×10^3 cells per well in Dulbecco's modified Eagle's medium (DMEM) containing 10% fetal bovine serum (FBS). […] The viability of cells is assessed after 6 days using Cell Counting kit-8 (Dojindo Molecular Technologies). […]
reported_metric: EC50 (µM)
Give the value, in units of µM, as a plain number.

Any idea what its EC50 is? The compound is Cc1ccc2nc(N3CCS(=O)(=O)c4ccccc4C3)cc(NC3CNC3)c2c1 [Example 26-1]
0.005

Queued: Cc1cc2c(NCCN)cc(N3CCS(=O)(=O)c4ccccc4C3)nc2c(F)c1F [Example 9-25]
4.08

# iterate: COc1ccc2c(c1)S(=O)(=O)CCN(c1cc(NCC3(CN)COC3)c3cc(Cl)ccc3n1)C2 [Example 3-14]
0.017

====

EC50 reference
# System: RSV Long strain
# test: Viral cytopathic effect (CPE) assay, anti-RSV activity
# Format: cell-based, Respiratory Syncytial Virus
# condition_set: human respiratory syncytial virus, 144 h, RSV Long strain (ATCC); cell viability after 6 days, Cell Counting kit-8
The answer is to be given in µM; state only the numeric part.

Reported EC50, compound "Cc1ccc2nc(N3CCS(=O)(=O)c4ccccc4C3)nc(NCC(F)(F)CN)c2c1" : ____
0.027

Ok, now "NC1(CNc2nc(N3CCS(=O)(=O)c4ccccc4C3)nc3ccccc23)COC1"
0.023

Entry to check: Cc1ccc2nc(N3CCS(=O)(=O)c4ccccc4C3)cc(NC3CCN(C4COC4)C3)c2c1 (stereo not shown)
0.084

More entries:
Quick one: EC50 of "Cc1ccc2nc(N3CCS(=O)(=O)c4ccccc4C3)cc(NCCC(N)=O)c2c1" ?
0.073

Entry to check: "Cc1ccc2nc(N3CCS(=O)(=O)c4ccccc4C3)cc(NC(=O)c3cnccn3)c2c1"
0.432

// query: "NCCCNc1cc(N2CCS(=O)(=O)c3ccccc3C2)nc2ccc(O)cc12"
0.042

Quick one: Cc1ccc2nc(N3CCC(F)(F)c4ccccc4C3)cc(NCC(O)CO)c2c1 (stereo not shown)
1.66

====

# System: RSV Long strain
# test: Viral cytopathic effect (CPE) assay, anti-RSV activity
# Format: cell-based, Respiratory Syncytial Virus
# condition_set: human respiratory syncytial virus, 144 h, RSV Long strain (ATCC); cell viability after 6 days, Cell Counting kit-8
// assign TRUE if EC50 falls strictly below 0.03 µM, else FALSE (ties count as FALSE)

Look over these answered cases.
Lab note: EC50 threshold 0.03 µM. Does this compound come in strictly under it? Cc1ccc2nc(N3CC[S+]([O-])c4ccccc4C3)nc(NC3(CN)COC3)c2c1 (stereo not drawn)
TRUE

Input "Cc1ccc2nc(N3CCS(=O)(=O)c4ccccc4C3)cc(N3C[C@H](O)[C@@H](O)C3)c2c1"
FALSE

Same for "Cc1ccc2nc(N3CCS(=O)(=O)c4c(F)cccc4C3)cc(NCC3(N)COC3)c2c1"
TRUE

Proceed to "NCCCNc1cc(N2CCS(=O)(=O)c3ccccc3C2)nc2ccc(OC(F)(F)F)cc12"
FALSE

Now consider "Cc1ccc2nc(N3CCS(=O)(=O)c4ccccc4C3)cc(NCC3(CN)CC(F)(F)C3)c2c1" .
FALSE

---
Take the compound Cc1ccc2nc(N3CCS(=O)(=O)c4ccccc4C3)cc(NCC(C)(O)CO)c2c1 (stereo not drawn) and say whether its EC50 is less than 0.03 µM.
FALSE

How about Cc1ccc2nc(N3CCS(=O)(=O)c4ccccc4C3)cc(NCC(O)CCO)c2c1 (stereo not drawn) ?
FALSE

Then "NCCCNc1cc(N2CCS(=O)(=O)c3ccccc3C2)nc2ccc(C(N)=O)cc12" ?
FALSE

Subsequent entry: "Cc1ccc2nc(N3CCC(F)(F)c4ccccc4C3)cc(N3CCN(C)CC3)c2c1"
FALSE

Query "Cc1ccc2nc(N3CCS(=O)(=O)c4ccccc4C3)cc(NC3(CCO)COC3)c2c1" next
FALSE

Now this one: Cc1ccc2nc(N3CCS(=O)(=O)c4ccccc4C3)cc(N3C[C@@H](N)[C@H](O)C3)c2c1 (relative stereo)
TRUE

Consider next the compound "Cc1ccc2nc(N3CCS(=O)(=O)c4ccccc4C3)cc(NC(C)(C)CN)c2c1" in the same way.
TRUE
